molecular target: SARS-CoV-2 NSP14/10 complex (ExoN activity) (Severe acute respiratory syndrome coronavirus 2, UniProt P0DTD1); assay: biochemical
pIC50: −log10 of the molar value.
Entries annotated with measured pIC50
property_label: pIC50

[[record]]
compound = "CC(C)=CCc1c(O)ccc(C(=O)/C=C/c2ccc(O)cc2)c1O"
recorded_number = 4.76

[[record]]
compound = "CC(C)=CCOc1ccc(/C=C/C(=O)c2ccc(OCC=C(C)C)cc2OCC(=O)O)cc1 [#102, Sofalcone, reference compound]"
recorded_number = 4.66


From: paper PMC8640510
